All values here come from the supplement of paper PMC6555819.

test system: PXR:RXRa (NR concentration 270 nM, RXRa partner concentration 90 nM); test: PBM binding z-score (relative to random genomic background probes); higher = stronger binding; sequences stand for … in GC…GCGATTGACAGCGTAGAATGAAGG
Each entry below lists one item and its recorded PBM binding z-score value.
Please reply with the number alone, leaving off any unit.

AGTCAAAGTTCATCTAAGTAACGTAAGATATGCT    4.78
TCTTGTAGATCAACAGGAGATTAAGAAAGATCGA    -0.306

Task item: State its PBM binding z-score for this sequence: `CCCTACGGGTCACTGACAGGTTATAGCATTTGGA`
Reply: 3.54

Task item: State its PBM binding z-score for this sequence: `TAGCCTAGGTCAGATCGGGCCAGTAGACGCTATA`
Reply: 0.619

Task item: State its PBM binding z-score for this sequence: `ATATGTAGCTTATCGGGTCATTCAGTTTGCGCAT`
Reply: 3.2

---

tested on: PPARg homodimer (NR concentration 180 nM); assay: PBM binding z-score (relative to random genomic background probes); higher = stronger binding; sequences stand for … in GC…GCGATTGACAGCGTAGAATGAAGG
Each entry below lists one item and its recorded PBM binding z-score value.
Please reply with the number alone, leaving off any unit.

Below are worked cases with known answers.
CGTCAAAGTTCAAGGTAACGGAACAGAAAGCAGC    1.96
AGTCAAGGTTCATCTAGGTAACGTAAGATATGCT    1.29
ATAGGTAGGTTAGCTGGGGTCATTCAGACTAGGC    3.23
TAGCCTAGGTCATGCGGGCCAGTATCGTGTCGGC    0.211
AGAATGAGGTTACCAAAGATCAGGAAAACGCTTG    0.925

Task item: Enter recorded PBM binding z-score with PPARg homodimer (NR concentration 180 nM) for `CCTGCTAGGTCCTGGTCAGCTAATCTACAGTATG` here.
Reply: -0.652

Task item: Enter recorded PBM binding z-score with PPARg homodimer (NR concentration 180 nM) for `ACTATTAGTTGAGACAAGGGCAACCGATAGGTTG` here.
Reply: 1.21

Task item: Enter recorded PBM binding z-score with PPARg homodimer (NR concentration 180 nM) for `TAGCCTAGGTCCTGCGGGCCAGTATAGTGTCGGC` here.
Reply: -1.72

Task item: Enter recorded PBM binding z-score with PPARg homodimer (NR concentration 180 nM) for `CGAACGAGGGCATGAGTGGATAGCAAATGCCGAT` here.
Reply: -0.474

Task item: Enter recorded PBM binding z-score with PPARg homodimer (NR concentration 180 nM) for `CGAACTCGGTCATCCAGGACAGTGAATACATTGA` here.
Reply: 0.363

---

system: RARa:RXR (NR concentration 270 nM, RXRa partner concentration 90 nM); test: PBM binding z-score (relative to random genomic background probes); higher = stronger binding; sequences stand for … in GC…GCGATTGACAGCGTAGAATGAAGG
recorded_endpoint: PBM binding z-score
Please reply with the number alone, leaving off any unit.

CTGAGTAGGTTATGGGGCATTCAGGCAACGGTGA    0.559
AGAACGATGGCACGCTGAGTTGATAGCAGAGTAG    -0.792
AGAACGAGGGCACGCTGAGCTGATAGCAGAGTAG    0.485
CAGCCTAGCTCAGGGCCAGTATAGGAGGAACGTT    -1.33

Task item: State its PBM binding z-score for this sequence: `TCATAGAGGTAAACAGGTGAAAGTCCGTAAGTTA`
Reply: 1.11

---

system: PPARg:RXRa 90nM:30nM, anti-RXR (NR concentration 90 nM, RXRa partner concentration 30 nM); assay: PBM binding z-score (relative to random genomic background probes); higher = stronger binding; sequences stand for … in GC…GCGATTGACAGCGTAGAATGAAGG
Decision: PBM binding z-score >= 2 yields YES, all other cases yield NO.

Solved cases below.
TAGCCTAGGTCATTCAGGGGACAGTATAGAAAGC    NO
CAAACTAGGTCACGAAAGTTCAAAGTCGAATGAC    YES
CTAGAAAGGTCGTGCTCAGGTGAGTATACCAAAC    YES

Task item: Confirm if PBM binding z-score reported for the sequence `GGAACGAGGGCAAGTTGATAGCAGAGTTTGATGG` is 2 or above.
Reply: NO

Task item: Confirm if PBM binding z-score reported for the sequence `CGTCCTAGGTCAAAGGTCAGTGAAGAGATGACGG` is 2 or above.
Reply: YES

Task item: Confirm if PBM binding z-score reported for the sequence `TGAATGAGGTTATAAGATCAGCGAACGTTGCAAA` is 2 or above.
Reply: NO

Task item: Confirm if PBM binding z-score reported for the sequence `CCTACTGGGCCATCAGGTCATTGCTATCAACGTT` is 2 or above.
Reply: YES

Task item: Confirm if PBM binding z-score reported for the sequence `TGTCAAAGTTCGAAGGTAACGTAAGTATCCACAC` is 2 or above.
Reply: YES

---

system: PPARa:RXRa (NR concentration 270 nM, RXRa partner concentration 90 nM); experiment: PBM binding z-score (relative to random genomic background probes); higher = stronger binding; sequences stand for … in GC…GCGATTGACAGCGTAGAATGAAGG
recorded_endpoint: PBM binding z-score
Please reply with the number alone, leaving off any unit.

Below are worked cases with known answers.
GCTAGTTGGTCAGTAAAAAGTCACACACCGGTCG    0.217
TCTCGTAGATCAAGCAGGTTAAGAAAGCCTGAGT    0.4

Task item: State its PBM binding z-score for this sequence: `CTCGAAAGGTCGGTTGAGGTGAGAATACGGATAA`
Reply: 2.77

---

test system: RARb:RXRa (NR concentration 270 nM, RXRa partner concentration 90 nM); assay: PBM binding z-score (relative to random genomic background probes); higher = stronger binding; sequences stand for … in GC…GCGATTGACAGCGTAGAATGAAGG
recorded_endpoint: PBM binding z-score
Please reply with the number alone, leaving off any unit.

ACTAATAGTTGAGACGAGGGCAACCGATAGGTTG    1.34
TTACCAAGGTGAGCTCAGGTCGTTGATCCAACTC    1.33

Task item: Enter recorded PBM binding z-score with RARb:RXRa (NR concentration 270 nM, RXRa partner concentration 90 nM) for `ATCGAAAGGTCGACGAGGTGAGTGTACACCGTTT` here.
Reply: 3.89

Task item: Enter recorded PBM binding z-score with RARb:RXRa (NR concentration 270 nM, RXRa partner concentration 90 nM) for `AGAACGAGGGCAATGAGTGGATAGCACGGGTGGC` here.
Reply: 1.72

Task item: Enter recorded PBM binding z-score with RARb:RXRa (NR concentration 270 nM, RXRa partner concentration 90 nM) for `CTTCGGAGGACAACAGGAGGTCAGAGCTGCCAGA` here.
Reply: 2.98

---

system: PPARg DBDmut IVT, anti-PPARg (DBD mutation: PPARg1 K132A/R137A, NR concentration 270 nM); experiment: PBM binding z-score (relative to random genomic background probes); higher = stronger binding; sequences stand for … in GC…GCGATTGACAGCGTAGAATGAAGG
recorded_endpoint: PBM binding z-score
Please reply with the number alone, leaving off any unit.

Below are worked cases with known answers.
ACAGTCAGGTGATGAAGGTAACTCAGGCTATCAT    0.294
TCTTGTAGATCAGCAGGTTAAGGAAGCTGGCCAA    -0.0477

Task item: State its PBM binding z-score for this sequence: `CGACCAAGGTCAAAGGTCAGTGAAGAGATGACGG`
Reply: 0.574

Task item: State its PBM binding z-score for this sequence: `CCTAGCAGGCCAGGGTCACTGAAGCATTTCGCTT`
Reply: -1.48

Task item: State its PBM binding z-score for this sequence: `TATAGCAGGCCAGAGGGTCACTCAAGAGGTACGG`
Reply: -0.0534

Task item: State its PBM binding z-score for this sequence: `CCGTACGGGTCACGAGGTTATAGCACGACGAGCG`
Reply: -0.38

Task item: State its PBM binding z-score for this sequence: `TTACCAAGGTGAGCTGAGCTCGTTGATCCAACTC`
Reply: 0.147

Task item: State its PBM binding z-score for this sequence: `CTCGAAAGGTCGTGCTCAGGTGAGTATACCAAAC`
Reply: 0.522

Task item: State its PBM binding z-score for this sequence: `TCTATTAGATGAAGGGCAACCGACGAGTCCGTTT`
Reply: 0.278

---

system: PPARa:RXRa (NR concentration 270 nM, RXRa partner concentration 90 nM); assay: PBM binding z-score (relative to random genomic background probes); higher = stronger binding; sequences stand for … in GC…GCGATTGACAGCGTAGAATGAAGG
recorded_endpoint: PBM binding z-score
Please reply with the number alone, leaving off any unit.

CAAACTAAGTCACGAAAGGTCAAAGTCGAATGAC    5.89
ACAGACAGGTGATGAAGGGAACTCAGGCTATCAT    -0.115

Proceeding to the next sequence to report its PBM binding z-score.
Task item: State its PBM binding z-score for this sequence: `GGAACGAGGGCAAGTTGATTGCAGAGTTTGATGG`
Reply: 1.84
